test.name: Wnt/beta-catenin pathway activators, primary screen, cell-based, plate reader, single point (AID 743398);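 also: 0% = neutral control wells and 100% = positive control wells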
recorded.conditions: Wnt/beta-catenin reporter cell assay, activator, at 9.35 µM, hits give high values
Hit rate of the full screen: of about 300,000 compounds, about 3,600 (1.2%) were called active. This is one part of a sample in which actives are shown more often than they occur.
measured.endpoint: activation (%)
A number alone suffices; assume %.

CCC(C)N(C(=O)CSc1ncnc2c1cnn2-c1ccccc1)C1CCS(=O)(=O)C1 (stereo not given) | 0.0855

Could you tell me which activation is on file for O=C(NCC(=O)N(CC1CCCO1)C(C(=O)NC1CCCCC1)c1ccccc1)c1ccco1 (stereo not given) ?
-4.62

Thanks! And COc1ccc(N2c3ccccc3CN(Cc3ccccc3)[C@@H](C)[C@H]2Cc2ccc(-c3ccccc3)cc2)cc1 ?
-4.27

Field entry: O=C(NCC(=O)N(Cc1cccs1)C(C(=O)NC1CCCCC1)c1ccco1)c1cccs1 (stereo not given)
67.7

Please answer likewise for CCc1nc2c(OCc3ccc(C(F)(F)F)cc3)cccn2c1N(C)C(=O)CC(C)C
-1.72

How about Cc1ccccc1N(C(=O)CNC(=O)c1cccs1)C(C(=O)NC1CCCC1)c1ccncc1 (stereo not given) ?
-0.349

CCN(C(=O)CSc1ncnc2c1cnn2-c1ccccc1)C1CCS(=O)(=O)C1 (stereo not given) , same question.
0.526

Cool, now Cn1cccc1C(=O)NNC(=O)COc1ccc(Br)cc1
3.43

Also Cn1cccc1C(=O)OCC(=O)c1ccc(Br)s1 , if possible.
47.9

Now the compound Cn1cccc1C(=O)OCC(=O)NCCc1ccccc1
15.6

###

test.name: Wnt/beta-catenin pathway activators, primary screen, cell-based, plate reader, single point (AID 743398);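 also: 0% = neutral control wells and 100% = positive control wells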
recorded.conditions: Wnt/beta-catenin reporter cell assay, activator, at 9.35 µM, hits give high values
About 3,600 (1.2%) of roughly 300,000 compounds were called active. This is one part of a sample in which actives are shown more often than they occur.
measured.endpoint: activation (%)
Report the figure in % without appending any unit label.

COc1cccc(CNC(=O)[C@H]2CCCN2C(=O)[C@H]2CCCN2C(=O)c2ccc(F)cc2)c1 | -3.18
CCCNC(=O)C1(C)CCN(Cc2csc(-c3ccc(Cl)cc3)n2)C1 (centres undefined) | -1.95
CCOc1ccc(C2C(C#N)=C(N)N(N(C)C)C3=C2C(=O)CCC3)cc1 (centres undefined) | 6.29

Name the recorded activation for O=C(/C=C/c1ccc(N2CCOCC2)cc1)c1ccccc1 .
38.7

Moving on to the next compound: Cn1c(=NC(=O)C2CC2)sc2cc(F)cc(F)c21
7.6

Item: O=C(O)c1ccc2c(c1)C(=O)N(c1ccc(/C=C/C(=O)c3ccccc3)cc1)C2=O
31.9

Moving on to COc1ccc(CC(=O)Nc2nc(-c3ccc(F)c(F)c3)cs2)cc1OC
-5.88

Same again, this time with N#CC1=C(N)N(c2ccccc2)C2=C(C(=O)CCC2)C1c1ccccc1 (centres undefined)
-0.648

What would you report for CC(C)[C@@H](C)/C=C/[C@@H](C)[C@H]1CC[C@@H]2[C@]1(C)CCC1[C@]23C=C[C@]2(C[C@@H](O)CC[C@]12C)N(c1ccc([N+](=O)[O-])cn1)O3 (some centres undefined) ?
-14.5

###

test.name: Wnt/beta-catenin pathway activators, primary screen, cell-based, plate reader, single point (AID 743398);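 also: 0% = neutral control wells and 100% = positive control wells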
recorded.conditions: Wnt/beta-catenin reporter cell assay, activator, at 9.35 µM
The whole screen tested about 300,000 compounds, of which about 3,600 (1.2%) were called active. Cut-off read from the data, not from the text of the source: active = activation above about 30% (passing the limit was not always enough); inconclusive = no clear call, values can overlap the other calls. For the sample, actives were picked, then their nearest neighbours and some compounds at random.
The reply should name one outcome from yes (1) for active, no (0) for inactive

Past entries and their recorded results:
O=C1Nc2ccccc2C1=NN=Cc1ccco1 | no (0)
O=C(NCCOc1ccccc1)N1[C@H]2CC[C@@H]1C=C(c1ccc(F)cc1OCc1ccccc1)C2 | no (0)

Continue with the next compound.
What is the recorded call for this compound in the test? CC(C)C[C@H](NC(=O)C1CCC(CNC(=O)[C@@H]2CCCN2C(=O)OC(C)(C)C)CC1)C(=O)O (some centres undefined)
no (0)
